- Tested on: Escherichia coli
- Method notes: Antibacterial activity against extended-spectrum beta-lactamase-negative Escherichia coli ATCC 25922 by agar dilution method
- Format: functional
Property: MIC (µg/mL)
A number alone suffices; assume µg/mL.

Ask: Bench note: what MIC did N=C(NC1CC1)c1ccc2cc(-c3ccc(Oc4ccc(-c5cc6ccc(C(=N)NC7CC7)cc6[nH]5)cc4)cc3)[nH]c2c1 show?
Reply: 128

Ask: Please look up its MIC: N=C(c1ccc2cc(-c3ccc(Oc4ccc(-c5cc6ccc(C(=N)N7CCOCC7)cc6[nH]5)cc4)cc3)[nH]c2c1)N1CCOCC1
Reply: 32

Ask: Return reported MIC; argument: CN(C)C(=N)c1ccc2cc(-c3ccc(Oc4ccc(-c5cc6ccc(C(=N)N(C)C)cc6[nH]5)cc4)cc3)[nH]c2c1
Reply: 4

Ask: Can you share its MIC? I mean this compound: N=C(NC1CCCCC1)c1ccc2cc(-c3ccc(Oc4ccc(-c5cc6ccc(C(=N)NC7CCCCC7)cc6[nH]5)cc4)cc3)[nH]c2c1
Reply: 64

Ask: Can you share its MIC? I mean this compound: N=C(c1ccc2cc(-c3ccc(Oc4ccc(-c5cc6ccc(C(=N)N7CCCC7)cc6[nH]5)cc4)cc3)[nH]c2c1)N1CCCC1
Reply: 16

Ask: Recorded MIC for N=C(c1ccc2cc(-c3ccc(Oc4ccc(-c5cc6ccc(C(=N)N7CCC(N8CCCC8)CC7)cc6[nH]5)cc4)cc3)[nH]c2c1)N1CCC(N2CCCC2)CC1 , please?
Reply: 32
